Value source: patent US11820822B2

System: B16F10-Cas9 cells co-cultured with Pmel-1 T cells
Experimental protocol: Genome-scale CRISPR-Cas9 screen, selection with Pmel-1 T cells
Format: cell-based, mouse
Experimental context: Table 3; B16F10-Cas9 cells pre-treated with IFNγ, co-cultured with Pmel-1 T cells 1:1 for three days; negative = depleted, positive = enriched
Recorded metric: Pmel+ (sgRNA Log(2) fold change, Pmel-1 selection versus control T cells)
API note: the answer field is a bare number with no unit suffix.

{"Item sequence": "GTATAAGCCATTACGACGCA (chemistry not fully specified)", "Result value": -1.52}

Value of Pmel+ (sgRNA Log(2) fold change, Pmel-1 selection versus control T cells) reported for the sequence GATATGCTACAGGACCTTCG (chemistry not fully specified) is 0.44

Value of Pmel+ (sgRNA Log(2) fold change, Pmel-1 selection versus control T cells) reported for the sequence CCCGGACTGGATCAACACCG (chemistry not fully specified) is -0.09

Value of Pmel+ (sgRNA Log(2) fold change, Pmel-1 selection versus control T cells) reported for the sequence CGGATGGCCACACGTAACAG (chemistry not fully specified) is 3.00

Value of Pmel+ (sgRNA Log(2) fold change, Pmel-1 selection versus control T cells) reported for the sequence AGGTCACAATGTACCAACCC (chemistry not fully specified) is -2.61

Value of Pmel+ (sgRNA Log(2) fold change, Pmel-1 selection versus control T cells) reported for the sequence ATGTTGCCATCGTCACTGCA (chemistry not fully specified) is 3.04

Value of Pmel+ (sgRNA Log(2) fold change, Pmel-1 selection versus control T cells) reported for the sequence GAAAAGCAAGCGTAATCTCC (chemistry not fully specified) is 8.13

----------
Each entry below carries its recorded OT1 (sgRNA Log(2) fold change, OT-I selection versus control T cells).
Test system: B16F10-Cas9 cells pulsed with SIINFEKL peptide, co-cultured with OT-I T cells
Experimental protocol: Genome-scale CRISPR-Cas9 screen, selection with OT-I T cells
Type: cell-based, mouse
Experimental context: Table 3; B16F10-Cas9 cells pulsed with SIINFEKL, co-cultured with OT-I T cells 1:1 for one day; negative = depleted, positive = enriched
API note: the answer field is a bare number with no unit suffix.

Some sequences with known OT1 (sgRNA Log(2) fold change, OT-I selection versus control T cells) results, for comparison:
{"Item sequence": "CTTCAGATCTCTCTCGAATG (chemistry not fully specified)", "Assay target": "B16F10-Cas9 cells pulsed with SIINFEKL peptide, co-cultured with OT-I T cells", "Result value": -2.84}
{"Item sequence": "GAATGATATTATAGCGACGA (chemistry not fully specified)", "Assay target": "B16F10-Cas9 cells pulsed with SIINFEKL peptide, co-cultured with OT-I T cells", "Result value": -2.20}
{"Item sequence": "AAGTCCTAGATAAAGCACAT (chemistry not fully specified)", "Assay target": "B16F10-Cas9 cells pulsed with SIINFEKL peptide, co-cultured with OT-I T cells", "Result value": 3.13}
{"Item sequence": "GCTCAAGTACTCGCCCGACC (chemistry not fully specified)", "Assay target": "B16F10-Cas9 cells pulsed with SIINFEKL peptide, co-cultured with OT-I T cells", "Result value": -2.85}
{"Item sequence": "AGAGATCTGCGCCATTTAAG (chemistry not fully specified)", "Assay target": "B16F10-Cas9 cells pulsed with SIINFEKL peptide, co-cultured with OT-I T cells", "Result value": -3.28}

Let me check: GATATGCTACAGGACCTTCG (chemistry not fully specified) , system B16F10-Cas9 cells pulsed with SIINFEKL peptide, co-cultured with OT-I T cells, measured OT1 (sgRNA Log(2) fold change, OT-I selection versus control T cells) is -2.83

Let me check: ATGAGGTACAGCAGAAAGGT (chemistry not fully specified) , system B16F10-Cas9 cells pulsed with SIINFEKL peptide, co-cultured with OT-I T cells, measured OT1 (sgRNA Log(2) fold change, OT-I selection versus control T cells) is -2.05

Let me check: ACGACGAGGAGTTCGAATAC (chemistry not fully specified) , system B16F10-Cas9 cells pulsed with SIINFEKL peptide, co-cultured with OT-I T cells, measured OT1 (sgRNA Log(2) fold change, OT-I selection versus control T cells) is -2.76

Let me check: ACTTCAAAGTCCATGGCACA (chemistry not fully specified) , system B16F10-Cas9 cells pulsed with SIINFEKL peptide, co-cultured with OT-I T cells, measured OT1 (sgRNA Log(2) fold change, OT-I selection versus control T cells) is -2.45

Let me check: AGGTCACAATGTACCAACCC (chemistry not fully specified) , system B16F10-Cas9 cells pulsed with SIINFEKL peptide, co-cultured with OT-I T cells, measured OT1 (sgRNA Log(2) fold change, OT-I selection versus control T cells) is -1.71

Let me check: CACTGCGAGACCAATCTAGA (chemistry not fully specified) , system B16F10-Cas9 cells pulsed with SIINFEKL peptide, co-cultured with OT-I T cells, measured OT1 (sgRNA Log(2) fold change, OT-I selection versus control T cells) is 1.44

Let me check: AACTTCAGTAGCGGGCGACG (chemistry not fully specified) , system B16F10-Cas9 cells pulsed with SIINFEKL peptide, co-cultured with OT-I T cells, measured OT1 (sgRNA Log(2) fold change, OT-I selection versus control T cells) is -2.23

Let me check: CCCGGGAATAGCGTACAGCT (chemistry not fully specified) , system B16F10-Cas9 cells pulsed with SIINFEKL peptide, co-cultured with OT-I T cells, measured OT1 (sgRNA Log(2) fold change, OT-I selection versus control T cells) is -2.71
